System: KM12
Test: NCI tumour cell line growth inhibition, 48 h
Calls of active or inactive are those of the source. Rule as the data show it: active = GI50 up to about 1.1 µM and inactive = higher.
Labels: true (1) (active), false (0) (inactive)

- COC(=O)[C@H](C)N(C)C(=O)[C@H](C)N1[C@@H](c2ccccc2)COC1(C)C: false (0)
- C=Cc1cc2c(cc1O)CC[C@@H]1[C@@H]2CC[C@]2(C)[C@@H](O)CC[C@@H]12: false (0)
- N=C(N)NCCCS(=O)(=O)Nc1ccc(Nc2c3ccccc3nc3cc([N+](=O)[O-])ccc23)cc1: false (0)
- CC(=O)OCSc1ncnc2c1ncn2CN1CCOCC1: false (0)
- COc1cccc2c1OC(c1cccc3ccccc13)C([N+](=O)[O-])=C2 (centres undefined): false (0)
- CC(=O)C(N1CCCCC1)C(O)(C(F)(F)F)C(F)(F)F (centres undefined): false (0)
- COC1C(O)CC(OC2C(C)OC(Oc3cc(O)c4c(O)c5c(cc4c3)C[C@@H]([C@H](OC)C(=O)[C@@H](O)[C@@H](C)O)[C@H](OC3CC(OC4CC(OC6CC(C)(O)C(O)C(C)O6)C(O)C(C)O4)C(O)C(C)O3)C5=O)CC2OC(C)=O)OC1C (some centres undefined): false (0)
- Cc1nc2sccn2c1C(=O)OCCOCCOCCOCCOC(=O)c1c(C)nc2sccn12: false (0)
- Cn1c2c3ccccc3nc-2c(O)c2ccccc21 [HYDROXYCRYPTOLEPINE]: false (0)
- O=C1c2cccc3cc([N+](=O)[O-])cc(c23)C(=O)N1CCNCCNCCNCCN1C(=O)c2cccc3cc([N+](=O)[O-])cc(c23)C1=O: true (1)
- c1ccc2c(c1)CCN(C1=NCCO1)C2: false (0)
- Oc1nc(-c2ccccc2)cc(-c2ccccc2O)n1: false (0)
- O=c1cc(/C=C/c2ccc(O)c(O)c2)cc(/C=C/c2ccc(O)c(O)c2)o1: false (0)
- C(=C\c1cc[n+](CCc2ccccc2)cc1)/c1ccccc1: false (0)
- C/C=C\C(CC(=O)NCCc1cn(C(=O)OCc2ccccc2)c2ccccc12)CC(=O)OC (centres undefined): false (0)
- CN1CC[C@]23c4c5ccc(O)c4OC2c2[nH]ncc2C[C@H]3[C@H]1C5 (some centres undefined): false (0)
- CN1C(=O)C(C)(C)NS1(=O)=O: false (0)
- CSC1=NN(c2ccccc2)C(=O)C1=C(SC)SC: false (0)
- O=C(O)c1ccc(/N=C(\C(=N\c2ccc(C(=O)O)cc2)c2ccccc2)c2ccccc2)cc1: false (0)

###

Recorded GI50 by entry
Test system: MOLT-4
Experiment: NCI tumour cell line growth inhibition, 48 h
Activity calls are given as the source filed them. Cut-off read from the data, not from the text of the source: active = GI50 up to about 1.1 µM and inactive = higher.
reported-endpoint: GI50

- COc1ccc2[nH]c3c(c2c1)CCn1c-3nc2ccccc2c1=O: > 25 µM (inactive)
- O=c1onc2n1-c1cc(Cl)ccc1C(=S)N1CSCC21 (stereo not drawn): > 100 µM (inactive)
- O=C(NNC(c1ccccc1)C(F)(F)F)c1ccncc1 (stereo not drawn): > 100 µM (inactive)

###

Test system: PC-3
Assay: NCI tumour cell line growth inhibition, 48 h
The source made the active and inactive calls. Cut-off read from the data, not from the text of the source: active = GI50 up to about 1.1 µM and inactive = higher.
Labels: Yes for active, No for inactive

* CN(C)c1ccc(/C=N/c2ccc(Oc3ccc(Cl)cc3)c(Cl)c2)cc1 | No
* CN(CCC(=O)O)C1=Nc2ccc(Cl)cc2C(c2ccccc2)=[N+]([O-])C1 | No
* COc1ccc(/C=N/n2c(Cc3ccccc3)n[nH]c2=O)cc1 | No
* O=C1CC(O)c2c(Cl)sc(Cl)c21 (centres undefined) | No
* CC(C(=O)NCNC(=O)c1ccccc1)C(=O)NCc1ccccc1 (centres undefined) | No
* C=CC[C@H](O)[C@@](NC(=O)OCc1ccccc1)(Sc1ccc(C)cc1)C(F)(F)F | No
* CC1=CCC[C@@](C)(O)[C@@H]2C[C@H]3C(CSc4ccccc4)C(=O)O[C@H]3[C@@H](O2)[C@H](C)CCC1 (some centres undefined) | No
* Cc1c(N2C(=O)CS(=O)(=O)C2c2cccc(Oc3ccccc3)c2)c(=O)n(-c2ccccc2)n1C (centres undefined) | No
* CCCCI(O)OS(=O)(=O)c1ccc(C)cc1 | No
* Cc1cc(-c2cc(C(C)(C)C)c(O)c(C(C)(C)C)c2)c(C)cc1-c1cc(C(C)(C)C)c(O)c(C(C)(C)C)c1 | No
* [O-][n+]1onc2c1CCC(=N\O)/C2=N/Nc1ccccc1 | No
* COc1cccc(C(=O)C(O)c2cccc(OC)c2OC)c1OC (centres undefined) | No
* COc1cc2c(c(O)c1C)C(=O)C(Cl)=CC2=O | No
* COc1c(Cl)ccc(Cl)c1C(=O)NNC(=O)c1c(Cl)c(Cl)c(Cl)c(Cl)c1-c1nc2cc(C(=O)c3ccccc3)ccc2[nH]1 | No
* CC(=O)Oc1c2ccsc2c(OC(C)=O)c2ccsc12 | Yes
* Cc1ccc2nc3sc(=O)sc3nc2c1 | No
* CCNC(=S)NNC(=O)c1csc(NC(=S)NC2CCCCC2)n1 | No
* C=C(C)c1nc(C#N)c(N)o1 | No
* C/C=C1\NC(=O)[C@H]2CSSCCC=C[C@H](CC(=O)N[C@H](C(C)C)C(=O)N2)OC(=O)[C@H](C(C)C)NC1=O | Yes
